melting point values, listed per item
Residues, ends and D or L forms follow the SMILES beside them. *: point of attachment. Boc = CC(C)(C)OC(=O)*; Bn = c1ccc(C*)cc1

compound	melting point
CC1=NOC(c2c(S(C)(=O)=O)ccc(C(=O)c3cnn(C4CC4)c3O)c2Cl)C1 (stereo not given)	> 220 °C
CCOC(=O)c1c2ccc(Cl)cc2c(-c2ccccc2)n1CCCC(C)=O	94 to 95 °C
COc1ccc(CNc2n[nH]c3ncnc(Nc4cccc(Cl)c4)c23)cc1	222 to 223 °C
OCC(CO)c1ccccc1	52 to 54 °C
Cc1cc(C)c(-n2ccc3c(N)nn(C)c(=O)c32)c(C)c1	254 to 256 °C
COC(=O)c1scc(Cl)c1NC(C)=O	142 to 147 °C
CC1(C)CN(C2CC3(C)C(CCC4C5CCC(C#N)C5(C)CCC43)CC2O)CCO1 (stereo not given)	170 to 173 °C
CNc1cc(C(O)CS(C)(=O)=O)cc(N(C)C(C)=O)c1C (stereo not given)	191 to 192 °C
COc1ccc(-c2nc3cc4c(cc3[nH]2)C(C)(C)CC(=O)N4)cc1	235 to 238 °C
COCc1ncnc(N2CCCCC2)c1C	45 to 47 °C
O=C(O)CCc1cnoc1-c1ccc(F)cc1	126 to 127 °C
CC1NC(=O)NN=C1c1ccc(N2CCCC2=O)cc1 (stereo not given)	278 to 280 °C
O=C(c1cc([N+](=O)[O-])ccc1Nc1ccncc1)N1CCCCC1	194 to 196 °C
CC(C)Oc1ccc(CN/C=C2\C(=O)NC(=O)c3ccc(Br)cc32)cc1O	212 to 213 °C
COC(=O)CS(=O)(=O)N1CC=C(c2ccc(Br)c(C)c2)CC1	110 to 112 °C
CCOCCOC(=O)C1=C(C)NC(COC(N)=O)=C(C(=O)OCC)C1c1cccc([N+](=O)[O-])c1 (stereo not given)	135 to 138 °C
CCOC(=O)c1cn(C2CC2)c2c(F)c(F)c(F)c(NCc3ccccc3)c2c1=O	134 to 135 °C
C[C@H]1C[C@@H](NC(=O)C(F)(F)F)CC(O)O1 (stereo not given in full)	159 to 160 °C
COc1cc2c(c3c1OC(C)(C)C3)C(c1ccnc(Cl)c1)=NC(C)(C)C2	139 to 140 °C
COC(=O)C(CC(C)C)NC(=O)C(C)NC(=O)C(Cc1ccc(OCc2ccccc2)cc1)NC(=O)OC(C)(C)C (stereo not drawn) (Boc-Tyr(Bn)-Ala-Leu-OMe; configuration not given here)	128 to 129 °C
